Molecular target: factor Xa (Homo sapiens)
Construct: Human factors X, Xa, IXa, XIa, and XIIa are purchased; purchased Enzyme Research Laboratories, South Bend, Ind
Sequence (P00742 235-488 limits assumed): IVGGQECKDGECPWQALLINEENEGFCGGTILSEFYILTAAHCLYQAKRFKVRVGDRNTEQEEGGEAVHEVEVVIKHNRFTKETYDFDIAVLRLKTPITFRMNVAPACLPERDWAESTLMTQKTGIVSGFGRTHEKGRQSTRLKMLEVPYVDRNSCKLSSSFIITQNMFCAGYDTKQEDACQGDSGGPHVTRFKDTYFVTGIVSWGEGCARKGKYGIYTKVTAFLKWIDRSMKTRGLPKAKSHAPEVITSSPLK
Sequence (P00742 41-179 partner limits assumed): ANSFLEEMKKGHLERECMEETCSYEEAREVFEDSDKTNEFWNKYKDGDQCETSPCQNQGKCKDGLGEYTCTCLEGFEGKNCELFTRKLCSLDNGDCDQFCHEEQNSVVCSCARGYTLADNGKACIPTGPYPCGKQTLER
Assay: Kass with factor Xa, chromogenic substrate
Type: biochemical
Settings: substrate N-Benzoyl-Ile-Glu-Gly-Arg-p-nitroanilide
Where a name gives a salt, the structure may show the parent alone.
Property: Kass Xa; scope: individual compounds
reported metric: Kass Xa

1. N=C(N)c1ccc(CNC(=O)[C@@H]2CCCN2C(=O)[C@H](N)CC2CCCCC2)cc1 [Example 51, D-Cha-Pro-p-NHCH2 C6 H4 C(NH)NH2.2HCl] :: 0.84 × 10^6 (L/mole)
2. NCc1cccc(CNC(=O)[C@@H]2CCCN2C(=O)[C@H](N)Cc2ccccc2)c1 [Example 11, D-Phe-Pro-m-NHCH2 C6 H4 CH2 NH2.HCl] :: 0.000068 × 10^6 (L/mole)
3. CCS(=O)(=O)N[C@H](Cc1ccccc1)C(=O)N1CCC[C@H]1C(=O)NCc1cccc(C(=N)N)c1 [Example 24] :: < 0.001 × 10^6 (L/mole)
4. N=C(N)Nc1ccc(CNC(=O)[C@@H]2CCCN2C(=O)[C@@H]2NCC[C@@H]3CCCC[C@@H]32)cc1 [Example 38] :: < 0.001 × 10^6 (L/mole)
5. N=C(N)c1ccc(CNC(=O)[C@@H]2C[C@@H]3CCCC[C@@H]3N2C(=O)[C@@H]2NCC[C@@H]3CCCC[C@@H]32)cc1 (relative stereo) [Example 42] :: 0.07 × 10^6 (L/mole)
6. N=C(N)c1ccc(CNC(=O)[C@@H]2C[C@@H]3CCCC[C@@H]3N2C(=O)[C@H]2CCCCN2)cc1 (relative stereo) [Example 20, D-hPro-Ohi-p-NHCH2 C6 H4 C(NH)NH2.3HCl] :: 0.10 × 10^6 (L/mole)
